Where do the numbers come from? From PubChem BioAssay (NCI).

# Tested on: UO-31 renal
# Test name: NCI tumour cell line growth inhibition, 48 h

>  <Compound>
CC1(C)CN=C(Nc2ccc(F)cc2)S1

>  <Units text>
µM

>  <Modifier>
>

>  <TGI>
100

$$$$
>  <Compound>
CC(C)C[C@H](NC(=O)Cn1ccc(Nc2ccccc2)cc1=O)B(O)O

>  <Units text>
µM

>  <Modifier>
=

>  <TGI>
39.6

$$$$
>  <Compound>
O=C1C(Cl)N(c2ccc(Cl)cc2Cl)C1c1c[nH]c2ccccc12 (stereo unspecified)

>  <Units text>
µM

>  <Modifier>
>

>  <TGI>
100

$$$$
>  <Compound>
COc1ccc(Nc2nc3cc(C(F)(F)F)ccc3nc2C(=O)O)cc1

>  <Units text>
µM

>  <Modifier>
=

>  <TGI>
26.5

$$$$
>  <Compound>
CC(C)CSCC1OC(n2cnc3c(N)nccc32)C(O)C1O (stereo unspecified)

>  <Units text>
µM

>  <Modifier>
>

>  <TGI>
100

$$$$
>  <Compound>
O=S(/C=C/C=C/S(=O)(=O)c1ccccc1)c1ccccc1 (stereo unspecified)

>  <Units text>
µM

>  <Modifier>
=

>  <TGI>
5.64

$$$$

* * *

# Tested on: COLO 205 colon
# Test name: NCI tumour cell line growth inhibition, 48 h
Each entry below lists one item and its recorded TGI value.
Reported metric: TGI

>  <Compound>
COc1cccc(N=Cc2cc(OC)c(OC)c(OC)c2)c1

>  <Result>
> 100 µM

$$$$
>  <Compound>
NS(=O)(=O)c1nnc(NS(=O)(=O)c2ccc(F)cc2)s1

>  <Result>
> 100 µM

$$$$
>  <Compound>
O=Cc1cn(Cc2ccc(Cl)cc2)c2ccccc12

>  <Result>
20.7 µM

$$$$
>  <Compound>
CC(=O)OCC1(C)C(OC(C)=O)CCC2(C)C(CC(OC(C)=O)C3=CCOC3=O)C(O)(CO)CCC12 (configuration not stated)

>  <Result>
> 100 µM

$$$$
>  <Compound>
CC12OC3(C)OC(=O)C(c4ccccc4)(O1)C3(C)O2 (configuration not stated)

>  <Result>
> 100 µM

$$$$
>  <Compound>
COC(=O)C1=C(C(=O)OC)C2(CCCCCC2=O)OC1=O (configuration not stated)

>  <Result>
> 100 µM

$$$$
>  <Compound>
CC(C(=O)O)c1ccc(-n2nnc3c(=O)[nH][nH]c(=O)c32)cc1 (configuration not stated)

>  <Result>
> 100 µM

$$$$
>  <Compound>
C(=C1c2ccccc2-c2ccccc21)c1ccncc1

>  <Result>
18.3 µM

$$$$
>  <Compound>
Nc1nc(N)c2c(Cl)c(CNc3ccc(C(=O)NC(CC(=O)O)C(=O)O)cc3)ccc2n1 (configuration not stated)

>  <Result>
> 100 µM

$$$$
>  <Compound>
OCCCNCc1ccncc1

>  <Result>
> 100 µM

$$$$
>  <Compound>
O=C(O)CCCNS(=O)(=O)c1ccccc1

>  <Result>
> 100 µM

$$$$
>  <Compound>
O=C1C(=Cc2cccs2)C(=O)N(CCc2ccccc2)S(=O)(=O)N1CCc1ccccc1

>  <Result>
> 50 µM

$$$$

* * *

# Tested on: SF-268 CNS
# Test name: NCI tumour cell line growth inhibition, 48 h
Each entry below lists one item and its recorded GI50 value.

>  <Molecule>
O=C(N/N=C(\CN1CCN(c2cc3[nH]cc(C(=O)O)c(=O)c3cc2F)CC1)c1ccc(Cl)cc1)c1ccncc1

>  <GI50>
25800 nM

$$$$
>  <Molecule>
C=CC(=O)N1C[C@H](COc2nc(Nc3cnn(C)c3)nc3[nH]cc(Cl)c23)[C@@H](OC)C1

>  <GI50>
965 nM

$$$$
>  <Molecule>
O=C(CCCCN1CCOCC1)Nc1ccc(Cn2nnc3c2C(=O)c2nnn(Cc4ccc(NC(=O)CCCCN5CCOCC5)cc4)c2C3=O)cc1

>  <GI50>
400 nM

$$$$
>  <Molecule>
Cc1cc(N(CCNc2ccnc3cc(Cl)ccc23)Cc2cccs2)nc(Cl)n1

>  <GI50>
1830 nM

$$$$
>  <Molecule>
Cn1cc(-c2ccc(-c3cn(C)c4ccc(Cl)cc34)[nH]2)c2cc(Cl)ccc21

>  <GI50>
1380 nM

$$$$
>  <Molecule>
C[n+]1c2ccccc2c(Nc2ccc(N3CCCCC3)cc2)c2[nH]c3ccccc3c21

>  <GI50>
460 nM

$$$$
>  <Molecule>
CC(C)C[C@H](NC(=O)Cn1ccc(Nc2ccccc2)cc1=O)B(O)O

>  <GI50>
2880 nM

$$$$
>  <Molecule>
N#Cc1c(Br)n(C2OC(CO)C(O)C2O)c2ncn3ccnc3c12 (centres undefined)

>  <GI50>
58000 nM

$$$$
>  <Molecule>
ClCCn1cnc2c(SCc3ccccc3Cl)ncnc21

>  <GI50>
4870 nM

$$$$

* * *

# Tested on: COLO 205 colon
# Test name: NCI tumour cell line growth inhibition, 48 h
Reported metric: TGI

>  <Compound>
C[C@]12CCC(=O)CC1CC[C@@H]1C2CC[C@@]2(C)C1CC[C@@H]2OC(=O)CC[Se][Se]CCC(=O)O[C@H]1CCC2[C@@H]3CCC4CC(=O)CC[C@]4(C)C3CC[C@@]21C (stereo partly drawn)

>  <Reported metric>
TGI

>  <Result>
4.01 µM

$$$$
>  <Compound>
O=C(O)CSc1ccc(N=C=S)cc1

>  <Reported metric>
TGI

>  <Result>
> 100 µM

$$$$
>  <Compound>
COC(=O)CCc1ccc2c(c1)[C@H](C(=O)OC)[C@@H](c1ccc(O)cc1)O2

>  <Reported metric>
TGI

>  <Result>
> 100 µM

$$$$
>  <Compound>
CCc1cccc(C)c1NC(=O)CC(=O)NNC(N)=S

>  <Reported metric>
TGI

>  <Result>
> 100 µM

$$$$
>  <Compound>
C=C1CCc2ccccc2C1=O

>  <Reported metric>
TGI

>  <Result>
> 100 µM

$$$$
>  <Compound>
O=C(/C=C/c1ccc(Br)cc1)c1ccc(NCc2nc3ccccc3[nH]2)cc1

>  <Reported metric>
TGI

>  <Result>
13 µM

$$$$
>  <Compound>
CC(=O)OC1CCC2(C)C(CCC3C4CC=C(C5(C)OCCO5)C4(C)CCC32)C1 (stereo not drawn)

>  <Reported metric>
TGI

>  <Result>
32.9 µM

$$$$
>  <Compound>
ClCCn1cnc2c(SCc3ccccc3Cl)ncnc21

>  <Reported metric>
TGI

>  <Result>
> 100 µM

$$$$
>  <Compound>
NCCc1ccc2oc3cc(=O)c4ccccc4c-3nc2c1

>  <Reported metric>
TGI

>  <Result>
1.81 µM

$$$$
>  <Compound>
Cc1cc(C(C)C)cc(O)c(=O)c1

>  <Reported metric>
TGI

>  <Result>
> 100 µM

$$$$
>  <Compound>
COC(=O)C1CCC2(C)[C@H](CCC3O[C@]32C)[C@@]1(C)CC(=O)c1ccoc1 (stereo partly drawn)

>  <Reported metric>
TGI

>  <Result>
> 100 µM

$$$$
>  <Compound>
CC(C)C[C@H](NC(=O)Cn1ccc(Nc2ccccc2)cc1=O)B(O)O

>  <Reported metric>
TGI

>  <Result>
> 100 µM

$$$$
>  <Compound>
CCOC(=O)c1c(SCc2ccccc2)nc2c3ccccc3ccn12

>  <Reported metric>
TGI

>  <Result>
> 100 µM

$$$$
>  <Compound>
CO/C(=N\N=Cc1ccccc1)c1ccncc1

>  <Reported metric>
TGI

>  <Result>
> 100 µM

$$$$
>  <Compound>
CCCCCCCCCCC(O)CCCCCCC(=O)O (stereo not drawn)

>  <Reported metric>
TGI

>  <Result>
30 µM

$$$$
>  <Compound>
CN(C(=O)CCC(=O)O)c1ccccc1C(=O)O

>  <Reported metric>
TGI

>  <Result>
> 100 µM

$$$$
>  <Compound>
O=S(=O)(Nc1ccc(Cl)cc1)c1ccc(-c2cnc(C3CC3)o2)cc1

>  <Reported metric>
TGI

>  <Result>
10 µM

$$$$
>  <Compound>
NCCCN1CCN(c2ccccc2)CC1

>  <Reported metric>
TGI

>  <Result>
> 100 µM

$$$$
>  <Compound>
COc1ccc(OC)c2c1C(=O)C(=O)C(Cl)=C2O

>  <Reported metric>
TGI

>  <Result>
> 100 µM

$$$$
>  <Compound>
COc1nc(Cl)nc(Cl)c1Cl (tested in a mixture with another compound)

>  <Reported metric>
TGI

>  <Result>
26.8 µM

$$$$
>  <Compound>
CC(O)CCc1ccc(Oc2c3ccccc3nc3occc23)cc1 (stereo not drawn)

>  <Reported metric>
TGI

>  <Result>
24.1 µM

$$$$
>  <Compound>
CSc1ncnc2c1cnn2Cc1cn(CCCCO)nn1

>  <Reported metric>
TGI

>  <Result>
> 100 µM

$$$$
>  <Compound>
Cc1cc(C2CC(O)C(CO)O2)c(Cl)cc1Cl (stereo not drawn)

>  <Reported metric>
TGI

>  <Result>
> 100 µM

$$$$
